Assay: yeast display, Sf9 membrane polyspecificity reagent, FACS + sequencing; frameworks hold sequencing errors
measured-property: polyreactivity (PSR sort gate)

seq	measured-property	value-observed
QVQLVESGGGLVQAGGSLRLSCAASGIIFLTNAMGWYRQAPGTVRELVAAITAIGGSTYYADSVKGRFTISRDNAKNTVYLQMNSLKPEDTAVYYCAADCSYVYYLYDYWGQGTQVTVSS	polyreactivity (PSR sort gate)	low polyreactivity
QVQLVESGGGLVQAGGSLRLSCAASGSTFSGYAMGWYRQAPGKERELVAAITSGGGTYYADSVKGRFTISRDNAKNTVYLQMNSLKPEDTAVYYCAADGIARAYVLLDAYDFLYDYWGQGTQVTVSS	polyreactivity (PSR sort gate)	low polyreactivity

###

Experiment: yeast display, Sf9 membrane polyspecificity reagent, FACS + sequencing; frameworks hold sequencing errors

seq	polyreactivity (PSR sort gate)
QVQLVESGGGLVQAGGSLRLSCAASGRIFSKNAMGWCRQAPGKERELVAGITSNSGSTYYADSVKGRFTISRDNAKNTVYLQMNSLIPEDTAVYYCAARFPHRHYLLYTYDYWGQGTQVTVSS	low polyreactivity
QVQLVESGGRVLQAGGSLRLSCAASGRIFSYNDMGWYRQAPGKERELVATITSGDSTISADSVKGRFTISRDNAKNTVYLQMNSLKPEDTAVYYCATDIYGLPVDYWGQGTQVTVSS	low polyreactivity

###

Assay: yeast display, Sf9 membrane polyspecificity reagent, FACS + sequencing; frameworks hold sequencing errors
measured-property: polyreactivity (PSR sort gate)

Guide cases for polyreactivity (PSR sort gate), answers given:
seq	value-observed
QVQIEESGGGLVQAGGSLRLSCAASGFIFRPYAMGWYRQAPGKERELVAAITGGGSTYYADSVKGRFTISRDNAKNTVYLQMISLKPEDTAVYYCNADRRRRSGGFAGWHFQRNDYWGQGTQVTVSS	low polyreactivity
QVQLVESGGGLVQAGGSLRLSCAASGSTLGRYAMGWYIQAPGKERELVAAISRGGGSTYYADSVKGRFTISRDNAKNTVYLQMNSLKPEDTAVYYCAARQYIGSPPHRRRFDYWGQGTQVTVSS	high polyreactivity
QVQLVESGGGLVQAGGSLRLSCAASGLNFYYYAMGWYRQAPGKESELVAAISGGGSTYYADSVKGRFTISRDNAKNTVYLQMNSLKPEDTAVYYCAASYWYPSWLYDYWGQGTQVTVSS	low polyreactivity
QVQLVESGGGLVQAGGSLRLSCAASGNILFYNAMGWYRQAPGKERELVAAISRSAGSTYYADSVKGRFTISRDNAKNTVYLQMNSLKPEDTAVYYCAAQYFRRSVYWGQGTQVTVSS	high polyreactivity
QVQLVESGGGLVQAGGSLRLSCAASGRIFPYYAMGWYRQAPGKERELVAAISYRGTRTSYADSVKGRFTISRDNAKNTVYLQMNSLKPEDTAVYYCAAQRYFGISWPYDYWGQGTQVTVSS	high polyreactivity

Q) # input sequence: "QVQLVESGGGLVQAGGSLRLSCAASGSIYTNAMGWYRQAPGKERELVAAISWSGGRTYYADSVKGRFTISRDNAKNTVYLQMNSLKPEDTAVYYCAADYYYSQVAYDYWGQGTQVTVSS" ; wanted: its polyreactivity (PSR sort gate)
A) high polyreactivity

Q) # input sequence: "QVQLVESGGGLVQAGGSLRLSCAPSGSTFTYNAMGWYRQAPGKERELVASISSGTTTYYADSVKGRFTISRDNAKNTVYLQMNSLKPEDTAVYYCAVDSWSRVQGWLAHNYDYWGQGTQVTVSS" ; wanted: its polyreactivity (PSR sort gate)
A) low polyreactivity

Q) # input sequence: "QVQLVESGGGLVQAGGSLRLSCAASGRTFSSNAMGWYRQAPGKERELVASISFRGGRTYYADSVKGRFTISRDNAKNTVYLQMNSLKPVDTAVYYCATAYYYFSPSRADGEYWGQGTQVTVSS" ; wanted: its polyreactivity (PSR sort gate)
A) high polyreactivity

Q) # input sequence: "QVQLVESGGGLVQAGGSLRLSCAASGRTFYKYAMGWYRQAPGKERELVAAINRIGGRTYYADSVKGRFTISRDNAKNTVYLQMNSLKPEDTAVYYCAAEFVGDNRHGYWGQGTQVTVSS" ; wanted: its polyreactivity (PSR sort gate)
A) high polyreactivity

Q) # input sequence: "QVQLVESGGGLVQAGGSLRLSCAASGRTFYRNAMGWYRQAPGKERELVAAIRTRTGSTYYADSVKGRFTISRDNAKNTVYLQRNSLKPEDTAVYYCNASPYVNGRYGSWGQGTQVTVSS" ; wanted: its polyreactivity (PSR sort gate)
A) high polyreactivity

Q) # input sequence: "QVQHVESGGGLVQAGGSLRLSCAASGSTFQYPYTMGWYRQAPRKARELVAVISRTGGSTFYADSVKGRFTISRDNAKNTVYLQMNSLKPEDTAVYYCNARPRYKYPSYDYWGQGTQLTVSS" ; wanted: its polyreactivity (PSR sort gate)
A) high polyreactivity

###

Assay: yeast display, Sf9 membrane polyspecificity reagent, FACS + sequencing; frameworks hold sequencing errors
measured-property: polyreactivity (PSR sort gate)

seq	measured-property	value-observed
QVQLVESGGGLVQAGGSLRLSCAASGSPFVDNAMGWYRQAPGKEMELVAAIRDGSGGSTRYADSVKGRFTISRDNAKNTVYLQMHSLKPEVTAVYYCAADGYITVNYLRYDYWGQGTQVTVSS	polyreactivity (PSR sort gate)	low polyreactivity
QDQLVESGGGLVQAGGSLRLSCAASGSIFFINAMGWYRQAPGKERELVAAITYSGGSTYYADSVKGRFTISRDNAKYTVYLQMNSLKPEDTAVYYCAADQYSFLPWIAWLLDDYWGQGTQVTVSS	polyreactivity (PSR sort gate)	low polyreactivity
QVQLVESGGGLVQAGGSLRLSCAASGSIFTINAMGWYRQAPGKVRELVAAISWSGAPTYYADSVKGRFTISRDNAKNTVYLQMNSLTPEDTAVYYCATGYNYLDRNTGYVHRFDYWGQGTQVTVSS	polyreactivity (PSR sort gate)	low polyreactivity

###

Assay: yeast display, Sf9 membrane polyspecificity reagent, FACS + sequencing; frameworks hold sequencing errors
measured-property: polyreactivity (PSR sort gate)

Guide cases for polyreactivity (PSR sort gate), answers given:
seq	polyreactivity (PSR sort gate)
QVQLVESGGGLVQAGGSLRLSCAASGSTFGVNAMGWYRPAPGKERELVAAISRSGTSTYYADSVKGRFTISRDNAKNTVYLLMNSLKPEDTAVYYCAAQYFSGYHKYGYWGQGTQVTVSS	high polyreactivity
QVQLVESGGGLVQAGGSLRLSCAASGSTFSHYAMGWYRQATGKERELVAAISKSGGITYYADSVKGRFTISRDNAKNTVYLQMNSLKPEDTAVYYCNARWSWRGTRYDYGYWGQGTQVTVSS	low polyreactivity
QVQLVESGGGLVQAGGSLRLSCAASGRIFRKYTMGWYRQAPGKERELVAAITWSGGSTYYADSVKGRFTISRDNAKNTVYLQMNSLKPEDTAVYYCAARSIGGYRAVDTYYYWGHGTQVTVSS	high polyreactivity
QVQLVESGGGLVQAGGSLRLSCAASGSIFRTYSMGGYRQAPGKERELVATITFGGVSTYYADSVKGRFTISRDNAKNTVYLQMNSLKPEDTAVYYCAADVYTRFWRVYRFDYWGQGTQVTVSS	low polyreactivity
QVQLVESGGGLVQAGGSLRLSCAASGSTFFEYTMGWYRQAPGKEREFVADIRGRDGSTSYADSVKGRFTISRDNAKNTVYLQMNSLKPEDTAVYYCAADVSDWWSFGNDSWGQGTQVTVSS	low polyreactivity

Q) # input sequence: "QVQLVESGGGLVQAGGSLRLSCAASGSIFYQYAMGWYRLAPGKERELVARITGSSGSTYYADSVKGRFTISRDNAKNTVYLQKNSLKPEDTAVYYCATDNYLIGDYWGQGTQVTVSS" ; wanted: its polyreactivity (PSR sort gate)
A) high polyreactivity

Q) # input sequence: "QVQLVESGGGLVQAGGSLRLSCAASGSTFGPYAMGWYRQAPGKERELVAAIRSDGGTYYADSVKGRFTISRDNAKNTVYLQMNSLKPEDTAVYYCNAVRGAAWRCYNSWQTYPRDYWGQGTQVTVSS" ; wanted: its polyreactivity (PSR sort gate)
A) high polyreactivity

Q) # input sequence: "QVQLVESGGGLVQAGGSLRISCAASESIFPVYAMGWYRQAPGKERELVATITDGGGDTYYADSLKGRFTISRDNAKNTVYLQMNSLKPEDTAVYYCAARSMPEWSAYWYDYWGQGTQVTVSS" ; wanted: its polyreactivity (PSR sort gate)
A) low polyreactivity

Q) # input sequence: "QVQLVESGGGLVQAGGSLRLSCAASGRTSFGYAMGWYRQAPGKERELVAVISIGGTTYYADSVKGRFTISRDNAKNTVYLQMNSLKPEDTAVYYCAATPSNATGFLSYDYWGQGTQVTVSS" ; wanted: its polyreactivity (PSR sort gate)
A) low polyreactivity

Q) # input sequence: "QVQLVESGGGLVQAGGSLRLSCAASASIFSVYAMGWYRQAPGKERELVAAITRSGARTYYADSVKGRFTISRDNAKNTVYLQMNSLKPDDTAVYYCAADDPGYNQVEYWGQGTQVTVSS" ; wanted: its polyreactivity (PSR sort gate)
A) high polyreactivity
